# Test system: HB3
# experimentalDetails: qHTS profiling for inhibitors of Plasmodium falciparum proliferation (AID 504749); further: nearly all actives have a fitted effect of over 60% in size; further: potency means the concentration at half of the fitted maximal effect
# conditionNotes: P. falciparum in erythrocytes, SYBR Green DNA, 72 h; series mostly up to 28.7 µM
Results filed as inconclusive are left out. Activity calls are given as the source filed them. The call rests on the fitted dose curve; in most records, active means well fitted inhibition curve with a large enough effect; inconclusive means small, poorly fitted or top-dose-only effect; inactive means flat fitted curve, though single readings scatter. Peptide text beside a SMILES is read from it.
measuredEndpoint: Potency

INSERT INTO results (compound, measuredendpoint, testresult) VALUES
  ('CCCC(=O)Nc1ncnc2c1ncn2C1OC2COP(=O)(O)OC2C1OC(=O)CCC (centres undefined)', 'Potency', 'inactive'),
  ('CC(=O)Oc1c(C)cc(OCC(O)CNC(C)C)c(C)c1C (centres undefined)', 'Potency', 'inactive'),
  ('CC(=O)N[C@@H](CC(=O)O)C(=O)N[C@@H](CCC(=O)O)C(=O)O (Ac-Asp-Glu-OH)', 'Potency', 'inactive'),
  ('Cc1ccccc1OCC(O)CNCCOc1ccc(C(N)=O)cc1 (centres undefined)', 'Potency', 'inactive'),
  ('CCOC(=O)C1=CC2(CC)CCCN3CCc4c(n1c1ccccc41)C32 (centres undefined)', 'Potency', '12.6 µM (active)'),
  ('CCCCCCCCCCCCCCCC(=O)OCC(COC(=O)CCCCCCCCCCCCCCC)OC(=O)CCCCCCCCCCCCCCC', 'Potency', 'inactive'),
  ('CC1=C(/C=C/C(C)=C/C=C/C(C)=C/C=C/C=C(C)/C=C/C=C(C)/C=C/C2=C(C)CCCC2(C)C)C(C)(C)CCC1', 'Potency', 'inactive'),
  ('C[C@]12CCC(=O)C=C1CC[C@@H]1[C@@H]2[C@@H](O)C[C@@]2(C)[C@H]1CC[C@]2(O)C(=O)COP(=O)(O)O', 'Potency', 'inactive');

The recorded Potency for CCCCCCC(O)C/C=C/CCCCCCCC(=O)O (centres undefined) is inactive

The recorded Potency for `IC(I)I` is inactive

The recorded Potency for Nc1c(Br)cc(Br)cc1CNC1CCC(O)CC1 (centres undefined) is inactive

The recorded Potency for `CN=C(NC#N)Nc1ccc(C2=NNC(=O)C[C@@H]2C)cc1` is inactive

The recorded Potency for `CCOc1ccc(N=Nc2ccc(N)cc2N)cc1` is inactive

The recorded Potency for `Cc1ccccc1` is inactive

The recorded Potency for `O=C1C(=O)c2ncccc2-c2cccnc21` is 1 µM (active)

The recorded Potency for CC1=CCC(C(C)(C)O)CC1 (centres undefined) is inactive

The recorded Potency for `Cc1c(C)c2c(c(C)c1O)CC[C@@](C)(CCC[C@H](C)CCC[C@H](C)CCCC(C)C)O2` is inactive

The recorded Potency for `COC(=O)[C@H]1[C@H]2C[C@@H]3c4[nH]c5ccccc5c4CCN3C[C@H]2C[C@@H](OC(=O)c2cc(OC)c(OC)c(OC)c2)[C@@H]1OC` is 0.794 µM (active)

The recorded Potency for `CCOC(C)=O` is inactive
